assay_procedure: soluble on expression in E. coli; label from the status in PepcDB or PDB records
measured_endpoint: soluble on expression in E. coli

Known results for sequences:
INSERT INTO results (construct_sequence, measured_endpoint, measured_result) VALUES
  ('MSLDSLGAINKIQDFLQKQEYKTLEYNLTTTEVVMENVTAFWEEGFGELFEKAKQNNNNRKTSNGDDSLFFSNFSLLGTPVLKDINFKIERGQLLAVAGSTGAGKTSLLMMIMGELEPSEGKIKHSGRISFCSQFSWIMPGTIKENIIFGVSYDEYRYRSVIKACQLEEDISKFAEKDNIVLGEGGITLSGGQRARISLARAVYKDADLYLLDSPFGYLDVLTEKEIFESCVCKLMANKTRILVTSKMEHLKKADKILILMKVAAIFMGHFQNSKIYSQTLAQNSWDVILSTNLVQKEEIQS', 'soluble on expression in E. coli', 'soluble'),
  ('MGSDKIHHHHHHMNRLIRTGVLGFLVWLAGCGHAPVQEKPTPEELKQRALQSAKIHTELAGQYYHRGQYRVAIEEAEIALQKKTDYAPAYNMLGLVYMDLQEDDRAEWNFERGLGITPNDPDIRNNFGWFLCQRKPDGIEQAIGHFMAAVRDPLYETPERTYTNAGLCVLKQNDFERAQSYFQEALVIRPGYPLARLGLVELDFSRGEVKKAWAAINRYLQTYPPAPGSLWLAVRIARANGDVNAETNYAFQLQKRFPDSREARESRAGRLNHER', 'soluble on expression in E. coli', 'not soluble'),
  ('MKTAYIAKQRQISFVKSHFSRQLEERLGLIEVQAPILSRVGDGTQDNLSGAEKAVQVKVKALPDAQFEVVHSLAKWKRQTLGQHDFSAGEGLYTHMKALRPDEDRLSPLHSVYVDQWDWERVMGDGERQFSTLKSTVEAIWAGIKATEAAVSEEFGLAPFLPDQIHFVHSQELLSRYPDLDAKGRERAIAKDLGAVFLVGIGGKLSDGHRHDVRAPDYDDWSTPSELGHAGLNGDILVWNPVLEDAFELSSMGIRVDADTLKHQLALTGDEDRLELEWHQALLRGEMPQTIGGGIGQSRLTMLLLQLPHIGQVQAGVWPAAVRESVPSLL', 'soluble on expression in E. coli', 'soluble'),
  ('MSLNALIEELKRLLKECATKKIVVIGECVRDVFVNTQRLSGPSDYQYTITKQLQRREFPGGAYPVARDLSNFVSKVHFVTCSTHEFPTNLERMDVIPISRERISKTRFFSGHNSNIFHYHCVFSEEITLSLTPLQELASVFSEADLVIVLDYGHGLLNSDVRKSISQNARFVALNCQANEDKYPFHQIWKYESTDLLLLNKVEAEINLLKTGVPVQELALRLHSKFKSTYTIVTDAEHGAVIQHDYRAYSSPAMSSCVVDAVGCSDIMLGFAALAAQNGKSAEEILYFASVAAGAKTMINVHERPLSREDLYEIALGVQNEGHHHHHH', 'soluble on expression in E. coli', 'not soluble');

Data request: Name the recorded soluble on expression in E. coli for "MGHHHHHHSHMAGAGVPGEATGRGAGGRRRKRPLQRGKPPYSYIALIAMAIAHAPERRLTLGGIYKFITERFPFYRDNPKKWQNSIRHNLTLNDCFLKIPREAGRPGKGNYWALDPNAEDMFESGSFLRRRKRFKRSDLST" .
Data returned: soluble
